target of assay: MAGE-A11:PCF11 interaction (GST-MAGE-A11 MHD and FAM-PCF11_4) (Homo sapiens)
Construct: GST-MAGE-A11 MHD (human MAGE-A11 MHD amino acid 218-429); made in house; host or cells: E. coli BL21(DE3)
Sequence (P43364 218-429): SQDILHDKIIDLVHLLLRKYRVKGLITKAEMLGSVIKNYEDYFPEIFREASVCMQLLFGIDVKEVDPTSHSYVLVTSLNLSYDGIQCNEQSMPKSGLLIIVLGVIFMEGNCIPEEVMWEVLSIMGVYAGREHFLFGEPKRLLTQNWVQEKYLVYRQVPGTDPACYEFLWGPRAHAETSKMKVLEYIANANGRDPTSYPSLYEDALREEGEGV
assay: TR-FRET dose response test of compounds for disruption of MAGE-A11:PCF11 binding
condition set: Dose response TR-FRET screening of nine scaffold groups against MAGE-A11:PCF11; read-out: consensus IC50
// returns not met unless IC50 is strictly below 20 µM, in which case met

hey, is IC50 for COc1ccc(Oc2ccc3c(NCCCNCc4cccc(OC)c4O)ccnc3c2)cc1 lower than 20 µM or not?
not met

# strict comparison: is reported IC50 < 20 µM? input = N#Cc1ccc(Cc2ccc3c(NCCCNCc4cccc5c4OCO5)ccnc3c2)cc1
not met

Just wondering, is IC50 of COc1cccc(CNCCCNc2ccnc3cc(-c4ccc(F)cc4)ccc23)c1O below 20 µM?
not met

For this compound, is IC50 lower than 20 µM? COc1cccc(CNCCCNc2ccnc3cc(Cc4cc(C)cc(C)c4)ccc23)c1O
not met

Answer whether the compound COc1ccc(F)cc1CNCCCNc1ccnc2cc(CC3CCCCC3)ccc12 has IC50 strictly less than 20 µM
not met

Would you kindly verify if IC50 of O=C1c2ccccc2NC(c2ccc(F)cc2F)N1CCCN1CCOCC1 (centres unmarked) is strictly less than 20 µM?
not met

Check if IC50 falls below 20 µM for C=C(C)CSc1nc2cc(-c3ccccc3)sc2c(=O)n1CCN1CCOCC1 .
met

Strictly below 20 µM: is that where IC50 of FC(F)(F)c1cccc(Cc2ccc3c(NCCCNCc4cccc5c4OCO5)ccnc3c2)c1 sits?
met
